Below: a set of entries, each annotated with reported polymerase ribozyme fitness (log ratio).
B1: TPR t1 (parent)
chain: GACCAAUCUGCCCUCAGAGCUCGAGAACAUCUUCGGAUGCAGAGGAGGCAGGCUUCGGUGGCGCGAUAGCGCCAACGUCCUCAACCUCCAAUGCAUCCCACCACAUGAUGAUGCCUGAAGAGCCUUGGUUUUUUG

variants of: B1; assay: polymerase ribozyme fitness, log enrichment relative to wild type (log ratio); higher = more active; in vitro selection for triplet polymerase activity
Please give the numeric answer without any surrounding text.

# annotated cases, reported polymerase ribozyme fitness (log ratio) shown
{"RESIDUE_SEQUENCE": "GACCAAUCUGCCUUCAGAGCUCGAGAACAUCUUCGGAUGCAGAGGAGGGUGGCUUCGAUGGCGCGAUAGCGCCAACGUCCUCAACCUCCAAUGCGUCCCACCACAUGAUGAUGGCUGAAGAGCCUUGGUUUUUUG", "polymerase ribozyme fitness (log ratio)": -5.63}
{"RESIDUE_SEQUENCE": "GACCAAUCUGCCCUCAGAGCUCGAGAACAUCUUCGGAUGCUGAGGAGGCCGGCUUCGGUGGCGCGAUAGCGCCAACGUCCUCAACCUCCAAUGCAUCCCACCACAUGAUGAUGCCUGAAGAGCCUUGGUUUUUUG", "polymerase ribozyme fitness (log ratio)": -1.53}
{"RESIDUE_SEQUENCE": "GACCAAGCUGCCCUCAGAGCUCGAGAACAUCUUCGGAUACAGAGGAGGCAGGCUUCGGUGGGGCGAUAGCGCCAACGUCCUCAACCUCCAAUGCAUCCCACCACAUGAUGAUGGCUGAAGAGCCUUGGUUUUUUG", "polymerase ribozyme fitness (log ratio)": -6.04}
{"RESIDUE_SEQUENCE": "GACCAAUCUGCCCUCAGAGCUCGAGAACAUCUUCGGUUGCAGAGGAUGCAGGCCUCGGUGGCGCGAUAGCGCCAACGGCCUCAAUCUCCAAUGCAUCCCACCACAUGAUGAUGCCUGAUGAGCCUUGGUUUUUUG", "polymerase ribozyme fitness (log ratio)": -3.1}
{"RESIDUE_SEQUENCE": "GACCAAUCUGCCCUCAGAGCUCGAGAACAUCUUCGGAUGCAGAGGAGGCAGGCUUCGGUGGCGCGAUAGCGCCAACGUCCUCAACCUCCAAUGCAUCCCAACACAUGAUGAUGCCUGAAGAGCCUUCGUUUUUUG", "polymerase ribozyme fitness (log ratio)": -1.82}

Prompt: Field request: polymerase ribozyme fitness (log ratio) | item: `GACCAAUCUGCCCUCAGAGCUCGAGAACAUCUUCGGAUGCAGAGGAGGCAGGCUUCGGUGGCGCGAUAGCGCCAACGUCCUCAACCUACAAUGCAUCCAACCACAUGAUGAUGCCUGAAGAGCCGUGGUUUUUUG`
Response: -6.88

Prompt: Field request: polymerase ribozyme fitness (log ratio) | item: `GACCAAUCUGCCCUCAGAGCUCGAGAACAUCUUCGGAUGCAGAGGAGGCAGGUUUCGGUGGCGCGAUAGCGCCAACGUCCUCAACCUCCAAUGCAUCCCACCAUAUGAUGAUGCCUGAAGAGCCUUGGUUUUUUG`
Response: 0.142

Prompt: Field request: polymerase ribozyme fitness (log ratio) | item: `GACCAAUCUGCCCUCAGAGCUCGAGAACAUCUUCGGAUGCAGAGGAGGCAGGCUUCGGUGGCGCGAUAGUGCCAACGUGCUCAACCUCCAAUGCAUCCCACCACAUGAUGAUGCCUGAAGAGCCUUGGUUUUUUG`
Response: -2.8

Prompt: Field request: polymerase ribozyme fitness (log ratio) | item: `GACCAAUCUGCCCUCAGAGCUCGAGAACAUCUUCGGAUGCAGAGGAGGCAGGCUUCGGUGGCGCGAUAGCGCCAACGUCCUCAACCUCCAAUGCAUUCCACCACAUGAUGAUGCCUGAAGAGCCUUAGUUUUUUG`
Response: -1.48

Prompt: Field request: polymerase ribozyme fitness (log ratio) | item: `GACCAAUAUGCCCUCAGAGCUCGAGAACAUCUUCGGAUGCAGAGGAGGCAGGCUUCGGUGGCGCGAUAGCGCCAACGUCCUCAACCUCCAAUGCAUCCCAGCACAUGAUGAUGCCUGAAGAGCCUUGGUUUUUUG`
Response: -1.63

Prompt: Field request: polymerase ribozyme fitness (log ratio) | item: `GACCCAUCUGCCCUCAGAGCUCGAGAACAUCUUCGGAUGCAGAGGAGGCAGGCUUUGGUGGCGCGAUAUCGCCAACGUCCUCAACCUCCAAUGCAUCCCACCACAUGAUGAUGCCUGAAAAGCCUUGGUUUUUUC`
Response: -1.06

Prompt: Field request: polymerase ribozyme fitness (log ratio) | item: `GACCAAUCAGCCCUCAGAGCUCGAGAACAUGUUCGGAUGCAGAGGAGGCAGGCUUCGGUGGCGCGAUAGCGCGAACGUCCUCAAACUCCAAUGCAUCCCACCACAUGACGAUGCCUGAAGAGCCUUGGUUUUUUG`
Response: -5.57

Prompt: Field request: polymerase ribozyme fitness (log ratio) | item: `GACCAAUCUGCCCUCAGAGCUCGAGAACAUCUUCGGAUGCAGAGGAGGCAGGCUUCGGUGGCGCGAUAGCGCCAACGUCCUCAACGUCCAAUGCAUCCCACCACAUGAUGAUGCCAGAAGAGCCUUGGUUUUUUG`
Response: -4.49
